- STUDY_SYSTEM: hmGluR1 receptor (Homo sapiens, UniProt Q13255)
- Construct: expressed in transfected cells
- Sequence (Q13255 19-1194): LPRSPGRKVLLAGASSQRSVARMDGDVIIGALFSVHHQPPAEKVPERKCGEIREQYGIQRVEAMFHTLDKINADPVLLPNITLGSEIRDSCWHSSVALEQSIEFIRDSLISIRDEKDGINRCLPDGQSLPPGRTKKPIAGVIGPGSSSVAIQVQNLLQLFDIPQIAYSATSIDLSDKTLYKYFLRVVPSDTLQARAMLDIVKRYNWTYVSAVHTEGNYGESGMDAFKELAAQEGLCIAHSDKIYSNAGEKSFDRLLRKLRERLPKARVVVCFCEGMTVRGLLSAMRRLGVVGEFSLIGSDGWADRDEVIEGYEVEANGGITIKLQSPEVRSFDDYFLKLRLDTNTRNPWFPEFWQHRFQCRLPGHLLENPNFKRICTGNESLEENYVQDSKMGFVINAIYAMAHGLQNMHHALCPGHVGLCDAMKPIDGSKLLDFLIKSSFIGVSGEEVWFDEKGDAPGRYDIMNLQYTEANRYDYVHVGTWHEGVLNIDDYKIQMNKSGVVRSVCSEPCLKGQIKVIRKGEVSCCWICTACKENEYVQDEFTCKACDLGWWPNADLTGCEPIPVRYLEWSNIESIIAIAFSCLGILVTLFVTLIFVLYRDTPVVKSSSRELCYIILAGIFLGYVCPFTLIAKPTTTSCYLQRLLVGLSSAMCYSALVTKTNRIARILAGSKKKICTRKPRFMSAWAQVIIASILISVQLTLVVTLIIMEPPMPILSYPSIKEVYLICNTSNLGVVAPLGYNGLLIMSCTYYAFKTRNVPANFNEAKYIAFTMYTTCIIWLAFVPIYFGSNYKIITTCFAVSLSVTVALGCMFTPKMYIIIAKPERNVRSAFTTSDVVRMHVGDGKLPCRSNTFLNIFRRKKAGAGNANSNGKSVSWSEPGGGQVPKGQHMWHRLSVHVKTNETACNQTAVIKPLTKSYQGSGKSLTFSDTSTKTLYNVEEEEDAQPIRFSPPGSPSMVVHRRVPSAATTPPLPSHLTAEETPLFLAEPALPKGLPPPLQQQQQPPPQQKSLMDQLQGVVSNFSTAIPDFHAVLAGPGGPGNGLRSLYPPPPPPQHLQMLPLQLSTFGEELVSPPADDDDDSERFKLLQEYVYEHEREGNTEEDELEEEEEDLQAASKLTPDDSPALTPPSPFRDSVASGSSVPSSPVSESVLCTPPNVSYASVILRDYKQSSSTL
- PROTOCOL_TEXT: IC50 determination: intracellular calcium mobilization (FLIPR) upon Quisqualate stimulation in CHO cells stably expressing hmGluR1
- Type: cell-based
- CONDITION: against Quisqualate 1 μM (EC80), FLIPR calcium mobilization, read-out: IC50 Class
MEASURED_ATTRIBUTE: IC50

# input compound: Cc1ccc(-n2cnc3c(sc4nccc(C(C)C)c43)c2=O)cc1 [29F] ; wanted: its IC50
< 50 nM

# input compound: Cc1ccc(-n2cnc3c(sc4ncnc(NCCCO)c43)c2=O)cc1 [95DL] ; wanted: its IC50
< 50 nM

# input compound: CN(C)c1ccnc2sc3c(=O)n(-c4ccc(C5CC5)cc4F)cnc3c12 [137F] ; wanted: its IC50
50 to 150 nM

# input compound: COCCn1cnc2c(sc3ncnc(N(C)C)c32)c1=O [95EA] ; wanted: its IC50
> 1000 nM

# input compound: Cc1ccc(-n2cnc3c(sc4nccc(N5CC(O)C5)c43)c2=O)cc1 [28DH] ; wanted: its IC50
150 to 1000 nM

# input compound: C#CCOc1ncnc2sc3c(=O)n(-c4ccc(C)cc4)cnc3c12 [66M] ; wanted: its IC50
50 to 150 nM

# input compound: CNc1c(C2CC2)cnc2sc3c(=O)n(-c4ccc(OC)cc4)cnc3c12 [137E] ; wanted: its IC50
< 50 nM

# input compound: CNc1nc(N)c2c(n1)sc1c(=O)n(-c3ccc(C)cc3)cnc12 [71B] ; wanted: its IC50
> 1000 nM

# input compound: CN(C)c1cccc2sc3c(=O)n(-c4ccc(Cl)c(Cl)c4)cnc3c12 [103J] ; wanted: its IC50
> 1000 nM

# input compound: O=c1c2sc3nccc(OCCO)c3c2ncn1-c1ccc(Cl)cc1 [66H] ; wanted: its IC50
> 1000 nM

----------
- STUDY_SYSTEM: hmGluR1 receptor (Homo sapiens)
- Construct: expressed in transfected cells
- PROTOCOL_TEXT: IC50 determination: intracellular calcium mobilization (FLIPR) upon Quisqualate stimulation in CHO cells stably expressing hmGluR1
- Type: cell-based
- CONDITION: against Quisqualate 1 μM (EC80), class symbols, read-out: mGIuR 1 IC50
pIC50: −log10 of the molar value.
MEASURED_ATTRIBUTE: pIC50

# input molecule: O=c1c2sc3ncccc3c2ncn1-c1ccccc1 ; wanted: its pIC50
< 6.00

# input molecule: COc1cc(-n2cnc3c(sc4nccc(N(C)C)c43)c2=O)c(OC)cc1Cl ; wanted: its pIC50
< 6.00

# input molecule: CC(=O)Nc1cccc(-n2cnc3c(sc4nccc(N(C)C)c43)c2=O)c1 ; wanted: its pIC50
6.00 to 6.82

# input molecule: CCNc1ncnc2sc3c(=O)n(-c4ccc(C)cc4)cnc3c12 [95P] ; wanted: its pIC50
> 7.30

# input molecule: CN(C)c1ccnc2sc3c(=O)n(-c4cccc(C5CC5)c4)cnc3c12 [137B] ; wanted: its pIC50
> 7.30

# input molecule: CN(C)c1cncc2sc3c(=O)n(-c4ccc5c(c4)OCCO5)cnc3c12 [37C] ; wanted: its pIC50
6.82 to 7.30

# input molecule: CCNc1ncnc2sc3c(=O)n(-c4ccc5c(c4)CCO5)cnc3c12 [95AC] ; wanted: its pIC50
> 7.30

# input molecule: O=c1c2sc3nccc(NCCO)c3c2ncn1C1CCCCC1 [28AG] ; wanted: its pIC50
6.82 to 7.30

# input molecule: CN(C)c1cncc2sc3c(=O)n(-c4ccc5scnc5c4)cnc3c12 [37B] ; wanted: its pIC50
6.00 to 6.82

# input molecule: CN(C)c1ccnc2sc3c(=O)n(-c4ccc5c(c4)OCCCO5)cnc3c12 ; wanted: its pIC50
6.00 to 6.82

# input molecule: CN(C)c1cncc2sc3c(=O)n(C4CCCCC4)cnc3c12 [37A] ; wanted: its pIC50
6.00 to 6.82

# input molecule: CN(C)c1ccnc2sc3c(=O)n(Cc4cccc(Cl)c4)cnc3c12 ; wanted: its pIC50
6.00 to 6.82

# input molecule: CN(C)c1cccc2sc3c(=O)n(C4CCCCC4)cnc3c12 [103B] ; wanted: its pIC50
6.00 to 6.82

# input molecule: CN(C)c1ccnc2sc3c(=O)n(NC(=O)C4CCC4)c(C4CCC4)nc3c12 [65D] ; wanted: its pIC50
< 6.00

# input molecule: CCc1ccc(-n2cnc3c(sc4nccc(N(C)C)c43)c2=O)cc1 ; wanted: its pIC50
> 7.30

# input molecule: Cc1ccc(-n2cnc3c(sc4nccc(NC[C@H](C)O)c43)c2=O)cc1 [28BB] ; wanted: its pIC50
> 7.30

# input molecule: CN(C)c1ccnc2sc3c(=O)n(-c4ccc(O)c(F)c4)cnc3c12 ; wanted: its pIC50
> 7.30

# input molecule: CN(C)c1ncnc2sc3c(=O)n(-c4ccc(OC(F)F)cc4)cnc3c12 [95Q] ; wanted: its pIC50
> 7.30

# input molecule: CC(=O)Nc1ccnc2sc3c(=O)n(C4CCCCC4)cnc3c12 [73B] ; wanted: its pIC50
< 6.00

# input molecule: CN(C)c1ccnc2sc3c(=O)n(Cc4ccc(Cl)c(Cl)c4)cnc3c12 ; wanted: its pIC50
< 6.00

# input molecule: CN(C)c1ccnc2sc3c(=O)n(C4Cc5ccccc5C4)cnc3c12 [15Y] ; wanted: its pIC50
> 7.30
